Documented pKd across a set of binders
Target: T1, recombinant His-tagged human TIGIT-ECD protein (human, UniProt Q495A1 22-141)
T1 construct: extracellular domain; The ELISA text only says His-tagged human TIGIT; also called His-tagged TIGIT; human TIGIT protein; not shown: His tag
T1 sequence (looked up): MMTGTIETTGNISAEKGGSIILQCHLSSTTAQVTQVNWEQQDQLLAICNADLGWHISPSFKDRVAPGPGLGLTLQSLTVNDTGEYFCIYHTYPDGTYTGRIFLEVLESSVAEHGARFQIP
Experiment: SPR affinity ranking (Biacore T200)
# pKd: negative log10 of molar concentration; output just the value

Please review the following examples before continuing.
101E1HM-5 (antibody, V domains shown) VH: QVQLQESGPGLVKPSQTLSLTCTVSGYSITDDYAWNWIRQPPGKGLEWMGYISYSGITRYNPSLKSRVTISRDTSKNQFSLKLSSVTAADTAVYYCARKYYGGWFPQWGQGTLVTVSS VL: DIQMTQSPSSLSASVGDRVTITCKASQDVFTAVAWYQQKPGKAPKLLIYSASYRDTGVPSRFSGSGSGTDFTFTISSLQPEDFATYYCQQSYSTPWTFGQGTRLEIK: 8.89
101E1HM-1 (antibody, V domains shown) VH: QVQLQESGPGLVKPSQTLSLTCTVSGYSITDDYAWNWIRQPPGKGLEWMGYISYSGHTKYNPSLKSRVTISRDTSKNQFSLKLSSVTAADTAVYYCARKYYGGWFPRWGQGTLVTVSS VL: DIQMTQSPSSLSASVGDRVTITCKASQDVFTAVAWYQQKPGKAPKLLIYSASYRPTGVPSRFSGSGSGTDFTFTISSLQPEDFATYYCQQSYSTPWTFGQGTRLEIK: 8.67
101E1HM-4 (antibody, V domains shown) VH: QVQLQESGPGLVKPSQTLSLTCTVSGYSITDDYAWNWIRQPPGKGLEWMGYISYSGHTRYNPSLKSRVTISRDTSKNQFSLKLSSVTAADTAVYYCARKYYGSWFPDWGQGTLVTVSS VL: DIQMTQSPSSLSASVGDRVTITCKASQDVFTAVAWYQQKPGKAPKLLIYSASYRMTGVPSRFSGSGSGTDFTFTISSLQPEDFATYYCQQSYSTPWTFGQGTRLEIK: 8.51

Below: the item to evaluate.
The recorded pKd for 101E1HM-3 (antibody, V domains shown) VH: QVQLQESGPGLVKPSQTLSLTCTVSGYSITDDYAWNWIRQPPGKGLEWMGYISYSGDTKYNPSLKSRVTISRDTSKNQFSLKLSSVTAADTAVYYCARKYYGGWFPVWGQGTLVTVSS VL: DIQMTQSPSSLSASVGDRVTITCKASQDVFTAVAWYQQKPGKAPKLLIYSASNRNTGVPSRFSGSGSGTDFTFTISSLQPEDFATYYCQQQYSTPWTFGQGTRLEIK is 9.26

Source listed as patent US20210015858A1.
